biological target: fMet-Leu-Phe receptor (Homo sapiens)
Sequence (P21462 whole entry): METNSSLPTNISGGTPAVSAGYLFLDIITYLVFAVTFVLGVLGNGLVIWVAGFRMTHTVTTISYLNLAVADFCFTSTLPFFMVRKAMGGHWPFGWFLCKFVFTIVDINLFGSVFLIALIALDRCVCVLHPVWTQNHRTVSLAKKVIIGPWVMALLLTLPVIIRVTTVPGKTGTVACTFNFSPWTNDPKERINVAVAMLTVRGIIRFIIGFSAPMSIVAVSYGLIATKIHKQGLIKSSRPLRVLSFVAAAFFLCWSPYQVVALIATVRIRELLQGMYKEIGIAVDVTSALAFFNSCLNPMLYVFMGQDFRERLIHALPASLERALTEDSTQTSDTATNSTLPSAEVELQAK
Consider the cut-off 0.05 µM. If the recorded EC50 is strictly smaller, the label is true (1); if not, the label is false (0).

Worked examples follow.
>  <compound>
COc1ccc(-n2cc(C3CCCNC3)nc2NC(=O)c2ccc(OC(F)F)cc2)cc1 (stereo not given) [WO2022076764, Example 64]

>  <label>
true (1)

$$$$
>  <compound>
COc1cc(F)c(-n2cc(C(=O)NCc3cccnc3)nc2NC(=O)c2ccc(OC(F)F)cc2)c(F)c1 [WO2022076764, Example 47]

>  <label>
true (1)

$$$$
>  <compound>
COc1cc(F)c(-n2cc(C3CCN(C(=O)CCC(N)=O)CC3)nc2NC(=O)c2ccc(OC(F)F)cc2)c(F)c1 [WO2022076764, Example 67]

>  <label>
false (0)

$$$$
>  <compound>
COc1cc(F)c(-n2cc(Cc3ccccc3)nc2NC(=O)c2ccc(OC(F)F)cc2)c(F)c1 [WO2022076764, Example 71]

>  <label>
true (1)

$$$$

Could you now consider this next compound?
Request: Criterion: EC50 strictly below 0.05 µM. Is it met by COc1cc(F)c(-n2cc(-c3ccccc3F)nc2NC(=O)c2ccc(OC(F)F)cc2)c(F)c1 [WO2022076764, Example 33] ?
Result: true (1)

Every entry's value here was drawn from BindingDB's records for patent WO2022076764.
